assay: AUC (0 to infinity) in Sprague-Dawley rat at 3 mg/kg, po; format: ADME, organism-based; parameters: time infinity, dose 3 mg/kg, route oral; conditions: plasma
endpoint_name: AUC(0-inf) (ng·h/mL)
Numeric only. Scale: ng·h/mL

Output AUC(0-inf) of Cc1nn(-c2c(F)cccc2F)cc1CN1CCC2(CC1)OCC(F)(F)c1cc(Cl)sc12.O=C(O)C(O)C(O)C(=O)O
438

Answer with the recorded AUC(0-inf) for the compound listed here: Cc1nn(-c2ncccc2F)cc1CN1CCC2(CC1)OCC(F)(F)c1cc(Cl)sc12.O=C(O)C(O)C(O)C(=O)O
1820

----------
test: Oral bioavailability in Sprague-Dawley rat at 10 mg/kg; format: ADME, organism-based; settings: in vivo
endpoint_name: bioavailability (%)
// units = %; emit number, no label

// Input: Cc1nn(-c2ncccc2CO)cc1CN1CCC2(CC1)OCC(F)(F)c1cc(Cl)sc12.O=C(O)C(O)C(O)C(=O)O . Output its bioavailability only.
57

Provide measured bioavailability value, entry: Cc1nn(-c2c(F)cccc2CO)cc1CN1CCC2(CC1)OCC(F)(F)c1cc(Cl)sc12.O=C(O)C(O)C(O)C(=O)O
51

----------
Please respond with reported clearance for every item in the list.
experiment: Plasma clearance in Sprague-Dawley rat at 1 mg/kg, iv; assay type: ADME, organism-based; parameters: dose 1 mg/kg, route intravenous
Provide the reading as a plain figure in mL/min/kg.

State its clearance: Cc1nn(-c2ncccc2F)cc1CN1CCC2(CC1)OCC(F)(F)c1cc(Cl)sc12.O=C(O)C(O)C(O)C(=O)O
19.8

Tell me measured clearance for Cc1nn(-c2c(F)cccc2F)cc1CN1CCC2(CC1)OCC(F)(F)c1cc(Cl)sc12.O=C(O)C(O)C(O)C(=O)O please.
52.9

Indicate its recorded clearance; the compound in question is Cc1nn(-c2ncccc2CO)cc1CN1CCC2(CC1)OCC(F)(F)c1cc(Cl)sc12.O=C(O)C(O)C(O)C(=O)O
23.9

Please give measured clearance of the following entry: Cc1nn(-c2c(F)cccc2CO)cc1CN1CCC2(CC1)OCC(F)(F)c1cc(Cl)sc12.O=C(O)C(O)C(O)C(=O)O
60.5

----------
experiment: Volume of distribution in Sprague-Dawley rat at 1 mg/kg, iv; type: ADME, organism-based; design: dose 1 mg/kg, route intravenous; details: in vivo
Assign Vd to each entry below.
Entry rule: numbers only, all in L/kg.

Indicate the recorded Vd value for this compound: Cc1nn(-c2ncccc2F)cc1CN1CCC2(CC1)OCC(F)(F)c1cc(Cl)sc12.O=C(O)C(O)C(O)C(=O)O
13.6

Please list Vd recorded for the compound Cc1nn(-c2c(F)cccc2F)cc1CN1CCC2(CC1)OCC(F)(F)c1cc(Cl)sc12.O=C(O)C(O)C(O)C(=O)O
28.2

Answer with the recorded Vd of Cc1nn(-c2c(F)cccc2CO)cc1CN1CCC2(CC1)OCC(F)(F)c1cc(Cl)sc12.O=C(O)C(O)C(O)C(=O)O only.
12.7

Given the compound Cc1nn(-c2ncccc2CO)cc1CN1CCC2(CC1)OCC(F)(F)c1cc(Cl)sc12.O=C(O)C(O)C(O)C(=O)O , write its reported Vd.
5.3

----------
assay: Plasma elimination half life in Sprague-Dawley rat at 1 mg/kg, iv; assay type: ADME, organism-based; set-up: dose 1 mg/kg, route intravenous; details: read-out: beta t1/2 (converted)
endpoint_name: half-life
Kindly write the number and append the unit.

In one line, give reported half-life of the entry Cc1nn(-c2c(F)cccc2F)cc1CN1CCC2(CC1)OCC(F)(F)c1cc(Cl)sc12.O=C(O)C(O)C(O)C(=O)O .
10.8 h

Tell me its half-life given Cc1nn(-c2ncccc2CO)cc1CN1CCC2(CC1)OCC(F)(F)c1cc(Cl)sc12.O=C(O)C(O)C(O)C(=O)O as the entry.
3.8 h

Return half-life for the following compound: Cc1nn(-c2ncccc2F)cc1CN1CCC2(CC1)OCC(F)(F)c1cc(Cl)sc12.O=C(O)C(O)C(O)C(=O)O
12.1 h

Identify measured half-life corresponding to Cc1nn(-c2c(F)cccc2CO)cc1CN1CCC2(CC1)OCC(F)(F)c1cc(Cl)sc12.O=C(O)C(O)C(O)C(=O)O
3.9 h

----------
assay: AUC (0 to infinity) in Sprague-Dawley rat at 10 mg/kg, po; format: ADME, organism-based; parameters: time infinity, dose 10 mg/kg, route oral; conditions: plasma
Exercise: state measured AUC(0-inf) for each of the molecules provided.
Answer in ng·h/mL, number only, no unit symbol.

Query AUC(0-inf) for Cc1nn(-c2ncccc2CO)cc1CN1CCC2(CC1)OCC(F)(F)c1cc(Cl)sc12.O=C(O)C(O)C(O)C(=O)O
4100

Determine its reported AUC(0-inf): Cc1nn(-c2c(F)cccc2CO)cc1CN1CCC2(CC1)OCC(F)(F)c1cc(Cl)sc12.O=C(O)C(O)C(O)C(=O)O
1280

----------
assay: Oral bioavailability in Sprague-Dawley rat at 3 mg/kg; format: ADME, organism-based; conditions: in vivo
Please go through the items and note down their bioavailability.
# number only, unit % dropped from output

Quote bioavailability reported for Cc1nn(-c2c(F)cccc2F)cc1CN1CCC2(CC1)OCC(F)(F)c1cc(Cl)sc12.O=C(O)C(O)C(O)C(=O)O please.
49

Tell me measured bioavailability for Cc1nn(-c2ncccc2F)cc1CN1CCC2(CC1)OCC(F)(F)c1cc(Cl)sc12.O=C(O)C(O)C(O)C(=O)O please.
62

----------
target: UniProt P41146; experiment: Displacement of [3H]-nociceptin from human recombinant NOP receptor expressed in CHO cells after 60 mins by scintillation counting
Sequence (P41146 whole entry): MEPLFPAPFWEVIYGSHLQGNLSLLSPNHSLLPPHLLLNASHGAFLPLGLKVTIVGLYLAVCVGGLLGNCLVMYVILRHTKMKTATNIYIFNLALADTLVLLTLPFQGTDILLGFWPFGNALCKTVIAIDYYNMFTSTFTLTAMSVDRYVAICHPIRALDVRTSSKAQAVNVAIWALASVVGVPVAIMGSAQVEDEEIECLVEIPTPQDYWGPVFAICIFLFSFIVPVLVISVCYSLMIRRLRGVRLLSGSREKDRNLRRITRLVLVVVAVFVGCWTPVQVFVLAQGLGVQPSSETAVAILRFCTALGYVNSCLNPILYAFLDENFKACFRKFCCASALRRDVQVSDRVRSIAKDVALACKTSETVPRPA
endpoint_name: Ki (nM)
Dear colleague, please return just the value in nM, with no unit written.

Retrieve Ki on UniProt P41146; query Cc1nn(-c2ncccc2F)cc1CN1CCC2(CC1)OCC(F)(F)c1cc(Cl)sc12.O=C(O)C(O)C(O)C(=O)O
0.176

Report Ki under test system UniProt P41146 for COCc1cccnc1-n1cc(CN2CCC3(CC2)OCCc2cc(F)sc23)c(C)n1 .
0.0939

For UniProt P41146, give Ki of the listed compound: Cc1nn(-c2c(F)cccc2CN(C)C)cc1CN1CCC2(CC1)OCCc1cc(F)sc12
0.0648

For UniProt P41146, give Ki of the listed compound: COCc1cccnc1-n1cc(CN2CCC3(CC2)OCC(F)(F)c2cc(Cl)sc23)c(C)n1.O=C(O)C(O)C(O)C(=O)O
0.185

Look up and report measured Ki (UniProt P41146) for the following compound: COCc1cccnc1-n1cc(CN2CCC3(CC2)OCCc2cc(Cl)sc23)c(C)n1
0.0908

Report Ki from UniProt P41146 testing of Cc1nn(-c2c(F)cccc2F)cc1CN1CCC2(CC1)OCCc1cc(F)sc12
0.0711

Lab note: UniProt P41146 assay, enter Ki for Cc1nn(-c2ncccc2F)cc1CN1CCC2(CC1)OCCc1cc(F)sc12 here
0.139

Provide the reported Ki (system: UniProt P41146) for Cc1nn(-c2ncccc2CN(C)C)cc1CN1CCC2(CC1)OCC(F)(F)c1cc(Cl)sc12.O=C(O)C(O)C(O)C(=O)O
0.371

# return Ki for Cc1nn(-c2c(F)cccc2CO)cc1CN1CCC2(CC1)OCC(F)(F)c1cc(Cl)sc12.O=C(O)C(O)C(O)C(=O)O , test system: UniProt P41146
0.114

Answer with Ki of Cc1nn(-c2ncccc2-c2ncc[nH]2)cc1CN1CCC2(CC1)OCC(F)(F)c1cc(Cl)sc12 measured for UniProt P41146.
0.0916

Under UniProt P41146, report Ki for Cc1nn(-c2c(F)cccc2C(N)=O)cc1CN1CCC2(CC1)OCCc1cc(F)sc12
0.0954

Answer with Ki of CNCc1cccc(F)c1-n1cc(CN2CCC3(CC2)OCC(F)(F)c2cc(Cl)sc23)c(C)n1.O=C(O)C(O)C(O)C(=O)O measured for UniProt P41146.
0.097

Tell me its Ki on UniProt P41146: Cc1nn(-c2c(F)cccc2CN(C)C)cc1CN1CCC2(CC1)OCC(F)(F)c1cc(Cl)sc12.O=C(O)C(O)C(O)C(=O)O
0.145

Give UniProt P41146 Ki for the following compound: Cc1nn(-c2ncccc2CO)cc1CN1CCC2(CC1)OCC(F)(F)c1cc(Cl)sc12.O=C(O)C(O)C(O)C(=O)O
0.105

Fetch value of Ki on UniProt P41146 for Cc1nn(-c2c(F)cccc2F)cc1CN1CCC2(CC1)OCC(F)(F)c1cc(Cl)sc12.O=C(O)C(O)C(O)C(=O)O .
0.172

Look up and report Ki, with UniProt P41146 as system, for Cc1nn(-c2c(F)cccc2CN(C)C)cc1CN1CCC2(CC1)OCCc1cc(Cl)sc12
0.122
